# test-summary: Pharmacokinetics of caspofungin during continuous venovenous hemodiafiltration (CVVHD)
# Format: in vivo, human
# cond: human, in vivo, iv, patient 11; 8 h after infusion ended; steady state, CVVHD; HPLC; read-out: Arterial caspofungin concentration
reported-property: level at 8 h (ng/mL)
Give the number; ng/mL is assumed, so skip it.

Problem: Data request, read-out level at 8 h, for `CC[C@H](C)C[C@H](C)CCCCCCCCC(=O)N[C@H]1C[C@@H](O)[C@@H](NCCN)NC(=O)[C@@H]2[C@@H](O)CCN2C(=O)[C@H]([C@H](O)CCN)NC(=O)[C@H]([C@H](O)[C@@H](O)c2ccc(O)cc2)NC(=O)[C@@H]2C[C@@H](O)CN2C(=O)[C@H]([C@@H](C)O)NC1=O`
Solution: 6000
